# Test smiles, Uom, melting point
records = [
    ("COc1cc(OC)cc(C(=O)c2ccc3ncn(-c4cnn(C)c4)c(=O)c3c2)c1", "°C", 194),
    ("COc1cc(OC)c(F)c(N(CCCO)c2ccc3ncn(C4CCOCC4)c(=O)c3c2)c1", "°C", 164),
    ("CNCCN(c1cc(OC)cc(OC)c1)c1ccc2ncn(C3CCNCC3)c(=O)c2c1", "°C", 139),
    ("COc1cc(OC)c(Cl)c(N(CCO)c2ccc3ncn(-c4cnn(C)c4)c(=O)c3c2)c1Cl", "°C", 223),
    ("COc1cc(OC)c(F)c(N(CCO)c2ccc3ncn(-c4ccncc4)c(=O)c3c2)c1", "°C", 209),
    ("COc1cc(OC)c(F)c(N(CCNC(C)C)c2ccc3ncn(-c4cnn(C)c4)c(=O)c3c2)c1", "°C", 132),
    ("CNCCN(c1cc(OC)cc(OC)c1)c1ccc2ncn(C3CCOCC3)c(=O)c2c1", "°C", 135),
    ("COc1cc(OC)c(F)c(N(CCO)c2ccc3ncn(-c4ccncc4)c(=O)c3c2)c1F", "°C", 198),
    ("CNCCN(c1ccc2ncn(-c3cnn(C)c3)c(=O)c2c1)c1c(F)c(OC)cc(OC)c1F", "°C", 141),
    ("COc1cc(OC)cc(N(CCCNC(C)C)c2ccc3ncn(C4CCOCC4)c(=O)c3c2)c1", "°C", 240),
    ("COc1cc(OC)cc(N(CCO)c2ccc3ncn(-c4cccnc4)c(=O)c3c2)c1", "°C", 168),
    ("COc1cc(OC)c(F)c(N(Cc2ncc[nH]2)c2ccc3ncn(-c4cnn(C)c4)c(=O)c3c2)c1F", "°C", 231),
    ("COc1cc(OC)c(F)c(N(CCCO)c2ccc3ncn(C4CCNCC4)c(=O)c3c2)c1", "°C", 167),
    ("COc1cc(OC)cc(N(Cc2ncc[nH]2)c2ccc3ncn(C4CCOCC4)c(=O)c3c2)c1", "°C", 260),
    ("COc1cc(OC)c(F)c(N(Cc2ncc[nH]2)c2ccc3ncn(C4CCNCC4)c(=O)c3c2)c1F", "°C", 223),
    ("COc1cc(OC)c(F)c(N(Cc2ncc[nH]2)c2ccc3ncn(-c4cnn(C)c4)c(=O)c3c2)c1", "°C", 212),
    ("COc1cc(OC)c(F)c(N(Cc2nccn2S(=O)(=O)N(C)C)c2ccc3ncn(C4CCOCC4)c(=O)c3c2)c1", "°C", 189),
    ("COc1cc(OC)cc(N(CCO)c2ccc3ncn(-c4ccccc4)c(=O)c3c2)c1", "°C", 171),
    ("COc1cc(OC)c(F)c(N(CCO)c2ccc3ncn(-c4cccnc4)c(=O)c3c2)c1F", "°C", 112),
    ("COc1cc(OC)c(F)c(N(CCO)c2ccc3ncn(C4CCNCC4)c(=O)c3c2)c1F", "°C", 186),
    ("COc1cc(OC)c(F)c(N(CCO)c2ccc3ncn(-c4ccccc4)c(=O)c3c2)c1", "°C", 183),
    ("COc1cc(OC)c(Cl)c(N(CCNC(C)C)c2ccc3ncn(-c4cnn(C)c4)c(=O)c3c2)c1Cl", "°C", 195),
]
